Experiment: yeast display, Sf9 membrane polyspecificity reagent, FACS + sequencing; frameworks hold sequencing errors
parameter: polyreactivity (PSR sort gate)

These solved cases illustrate the format of a correct answer.
primarysequence=QVQLVESGGGLVQAGGSLRLSCAASGSIFQIYAMGWYRQAPGKERELVATISSGGRTTYADSVKGRFTISRDNAKNSVYLQMNSLKPEDTAVYYCAAKLEWLSHYYYWGQGTQVTVSS reading="low polyreactivity"
primarysequence=QVQLVESGGGLVQAGGSLRLSCAASGLIFDANAMGWYRLAPVKERELVAAITGSGGRTYSADSVKGRFTISRDTANYTVYCQMNCLKPEATGVYYCAASSKRKVLYNYWGQGTQVTVSS reading="high polyreactivity"
primarysequence=QVQLVESGGGLVQAGGSLRLSCAASGSIFDYNGMGWYRQAPGKERELVAAISSGGSTNYADSVKGRFTISRDNAKNTVYLQMNSLKPEDTAVYYCAAVGRAKYYYWGQGTQVTVSS reading="low polyreactivity"
primarysequence=QDQLVESGGGLLQAGASLRLSCAASGFIFDSYAIGWDRQAPGKERELVAAITSSGSSTYYADSVKGRFTISRDNAKNTVYLQMNSLKPEDTAVYYCNAVYSATVVAWRFGYWGQGTQVTVSS reading="high polyreactivity"
primarysequence=QVQLVESAGGLVQAGGSLRLSCAASRRTFARYAIGRYRQAPGQERELVAALSRSGTCTYYADSVLGRFTISRDNAKNTVYLQKNSLKPEDCAVYYCAVDAYLGHYDYWGQGTQVTVSS reading="high polyreactivity"

Shifting focus to the sequence that follows.
# get_value(readout='polyreactivity (PSR sort gate)', item= QVQLVESGGGLVQAGGSLRLSCAASGSTFQGYALRWYRQAPGKERELVAAITKRSGRTYYADSVKGRFTISRDNAKNTVYLQMNSLKPEDTAVYYCAKVTSYSEYDYWGQGTQVTVSS ) high polyreactivity
